- target.of.assay: Sphingosine kinase 2 (Homo sapiens, UniProt Q9NRA0)
- Sequence (Q9NRA0 whole entry): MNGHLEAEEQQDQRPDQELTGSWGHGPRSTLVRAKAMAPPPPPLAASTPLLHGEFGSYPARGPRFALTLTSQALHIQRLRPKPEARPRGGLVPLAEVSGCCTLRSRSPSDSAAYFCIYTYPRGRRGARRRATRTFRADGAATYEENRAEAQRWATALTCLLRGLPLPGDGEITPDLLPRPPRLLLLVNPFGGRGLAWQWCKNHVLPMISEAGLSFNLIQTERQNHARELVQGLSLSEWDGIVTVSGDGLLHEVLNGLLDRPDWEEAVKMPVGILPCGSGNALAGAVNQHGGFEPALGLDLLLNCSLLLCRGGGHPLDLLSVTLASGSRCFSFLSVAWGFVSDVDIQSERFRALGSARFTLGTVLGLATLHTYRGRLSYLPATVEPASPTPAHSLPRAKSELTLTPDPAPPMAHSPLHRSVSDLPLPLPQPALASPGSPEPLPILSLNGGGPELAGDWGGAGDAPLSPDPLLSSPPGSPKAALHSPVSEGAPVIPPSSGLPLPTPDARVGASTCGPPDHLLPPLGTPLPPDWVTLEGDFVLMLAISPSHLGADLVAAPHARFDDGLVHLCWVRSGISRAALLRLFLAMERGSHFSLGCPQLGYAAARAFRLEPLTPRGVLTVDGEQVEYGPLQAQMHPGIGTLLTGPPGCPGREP

| smiles.notation | IC50 |
| --- | --- |
| CCCCCCCCCCCCCC[C@H]1NC[C@H](N)[C@@H]1O | > 100 µM |
